# System: Hepatitis C virus
# ASSAY PROTOCOL: Antiviral activity against Hepatitis C virus genotype 1b in human Huh7-luc clone ET replicon cells assessed as inhibition of replicon replication after 3 days by luciferase assay
# Type: functional, organism-based, Hepacivirus hominis
# ASSAY SETUP: Huh-7, 72 h
Could you please report measured EC50 for the items listed next?
Supply the numeric figure in µM, leaving out any unit text.

Lab note: CC(C)OC(=O)[C@H](C)NP(=O)(OC[C@H]1O[C@@H](n2ccc(=O)[nH]c2=O)[C@@]2(CCO2)[C@@H]1O)Oc1ccccc1 (mixture of isomers) gave EC50 of 20.9

Entry under test: C[C@H](NP(=O)(OC[C@H]1O[C@@H](n2ccc(=O)[nH]c2=O)[C@@]2(CCO2)[C@@H]1O)Oc1cccc2ccccc12)C(=O)OCc1ccccc1 (mixture of isomers) . Its EC50 was 2

`C[C@H](N[P@](=O)(OC[C@H]1O[C@@H](n2ccc(=O)[nH]c2=O)[C@@]2(CCO2)[C@@H]1O)Oc1cccc2ccccc12)C(=O)OCc1ccccc1` yielded EC50 of 3.7

Given item CC(C)CCOC(=O)[C@H](C)NP(=O)(OC[C@H]1O[C@@H](n2ccc(=O)[nH]c2=O)[C@@]2(CCO2)[C@@H]1O)Oc1ccccc1 (mixture of isomers) , the value recorded as its EC50 is 3.5

----------
# System: Hepatocyte
# ASSAY PROTOCOL: Prodrug activation in rat hepatocytes assessed as triphosphate metabolite formation at 10 uM after 8 hrs by LC-MS analysis
# Type: ADME, cell-based
Exercise: state measured Drug metabolism for each of the molecules provided.
# output: bare number, implied unit ng/mL

Input C[C@H](NP(=O)(OC[C@H]1O[C@@H](n2ccc(=O)[nH]c2=O)[C@@]2(CCO2)[C@@H]1O)Oc1cccc2ccccc12)C(=O)OCc1ccccc1 (mixture of isomers) . Output Drug metabolism: 107

Drug metabolism measured on CC[C@H](NP(=O)(OC[C@H]1O[C@@H](n2ccc(=O)[nH]c2=O)[C@@]2(CCO2)[C@@H]1O)Oc1ccccc1)C(=O)OCc1ccccc1 (mixture of isomers) = 87

The reported value for C[C@H](NP(=O)(OC[C@H]1O[C@@H](n2ccc(=O)[nH]c2=O)[C@@]2(CCO2)[C@@H]1O)Oc1ccccc1)C(=O)OCc1ccccc1 (mixture of isomers) in terms of Drug metabolism is 81

Data point: CCCCOC(=O)[C@H](C)NP(=O)(OC[C@H]1O[C@@H](n2ccc(=O)[nH]c2=O)[C@@]2(CCO2)[C@@H]1O)Oc1ccccc1 (some centres undefined) ; Drug metabolism = 75

----------
Field: CC50 at 72 h. Provide a value for each of the molecules that follow.
# ASSAY PROTOCOL: Cytotoxicity against human HuH7 cells assessed as inhibition of cell proliferation after 3 days by BrdU incorporation assay
# Format: cell-based, Huh-7

So for COC(=O)C(C)(C)NP(=O)(OC[C@H]1O[C@@H](n2ccc(=O)[nH]c2=O)[C@@]2(CCO2)[C@@H]1O)Oc1ccccc1 (mixture of isomers) , the logged CC50 at 72 h turned out to be > 98 µM

The molecule listed as `CCCCOC(=O)[C@H](C)N[P@](=O)(OC[C@H]1O[C@@H](n2ccc(=O)[nH]c2=O)[C@@]2(CCO2)[C@@H]1O)Oc1ccccc1` shows CC50 at 72 h equal to > 98 µM

The molecule identified as O=C(OCc1ccccc1)[C@@H](NP(=O)(OC[C@H]1O[C@@H](n2ccc(=O)[nH]c2=O)[C@@]2(CCO2)[C@@H]1O)Oc1ccccc1)c1ccccc1 (mixture of isomers) registered its CC50 at 72 h at > 92.8 µM

----------
# Test system: Hepatocyte
# ASSAY PROTOCOL: Prodrug activation in rat hepatocytes assessed as triphosphate metabolite formation at 10 uM after 2 hrs by LC-MS analysis
# Assay type: ADME, cell-based
PARAMETER: Drug metabolism (ng/mL)
Quick reminder: number only, in ng/mL, skip the unit.

get_value(item= C[C@H](NP(=O)(OC[C@H]1O[C@@H](n2ccc(=O)[nH]c2=O)[C@@]2(CCO2)[C@@H]1O)Oc1ccccc1)C(=O)OCc1ccccc1 (mixture of isomers) , readout=Drug metabolism) returns 112

// field: Drug metabolism; key: CCCCOC(=O)[C@H](C)NP(=O)(OC[C@H]1O[C@@H](n2ccc(=O)[nH]c2=O)[C@@]2(CCO2)[C@@H]1O)Oc1ccccc1 (some centres undefined) ; value = 152

Recorded Drug metabolism (compound C[C@H](NP(=O)(OC[C@H]1O[C@@H](n2ccc(=O)[nH]c2=O)[C@@]2(CCO2)[C@@H]1O)Oc1cccc2ccccc12)C(=O)OCc1ccccc1 (mixture of isomers) ): 293

So for CC[C@H](NP(=O)(OC[C@H]1O[C@@H](n2ccc(=O)[nH]c2=O)[C@@]2(CCO2)[C@@H]1O)Oc1ccccc1)C(=O)OCc1ccccc1 (mixture of isomers) , the logged Drug metabolism turned out to be 215

----------
# Tested on: Liver
# ASSAY PROTOCOL: Cmax in Sprague-Dawley rat liver assessed as triphosphate metabolite level at 50 mg/kg, po administered as single dose measured per gm of tissue
# Assay type: ADME, organism-based
# Design: dose 50 mg/kg, route oral
# ASSAY SETUP: in vivo
PARAMETER: Cmax (ng/g)
Write down the numeric answer in ng/g and omit the unit.

Briefly, Cmax measured for CC[C@H](NP(=O)(OC[C@H]1O[C@@H](n2ccc(=O)[nH]c2=O)[C@@]2(CCO2)[C@@H]1O)Oc1ccccc1)C(=O)OCc1ccccc1 (mixture of isomers) : 419

Record CCCCOC(=O)[C@H](C)NP(=O)(OC[C@H]1O[C@@H](n2ccc(=O)[nH]c2=O)[C@@]2(CCO2)[C@@H]1O)Oc1ccccc1 (some centres undefined) . Reported Cmax: 894

Form field Cmax, entry C[C@H](NP(=O)(OC[C@H]1O[C@@H](n2ccc(=O)[nH]c2=O)[C@@]2(CCO2)[C@@H]1O)Oc1cccc2ccccc12)C(=O)OCc1ccccc1 (mixture of isomers) : 754

get_value(item= C[C@H](NP(=O)(OC[C@H]1O[C@@H](n2ccc(=O)[nH]c2=O)[C@@]2(CCO2)[C@@H]1O)Oc1ccccc1)C(=O)OCc1ccccc1 (mixture of isomers) , readout=Cmax) returns 775

----------
# Test system: Liver
# ASSAY PROTOCOL: Tmax in Sprague-Dawley rat liver assessed as triphosphate metabolite level at 50 mg/kg, po administered as single dose
# Type: ADME, organism-based
# Set-up: dose 50 mg/kg, route oral
# ASSAY SETUP: in vivo
PARAMETER: Tmax (h)
Could you give me the number in h? Just the number is fine.

// field: Tmax; key: C[C@H](NP(=O)(OC[C@H]1O[C@@H](n2ccc(=O)[nH]c2=O)[C@@]2(CCO2)[C@@H]1O)Oc1ccccc1)C(=O)OCc1ccccc1 (mixture of isomers) ; value = 2

response.value for C[C@H](NP(=O)(OC[C@H]1O[C@@H](n2ccc(=O)[nH]c2=O)[C@@]2(CCO2)[C@@H]1O)Oc1cccc2ccccc12)C(=O)OCc1ccccc1 (mixture of isomers) (field: Tmax) = 6

Noted for CCCCOC(=O)[C@H](C)NP(=O)(OC[C@H]1O[C@@H](n2ccc(=O)[nH]c2=O)[C@@]2(CCO2)[C@@H]1O)Oc1ccccc1 (some centres undefined) : its Tmax reads 6

The recorded Tmax for CC[C@H](NP(=O)(OC[C@H]1O[C@@H](n2ccc(=O)[nH]c2=O)[C@@]2(CCO2)[C@@H]1O)Oc1ccccc1)C(=O)OCc1ccccc1 (mixture of isomers) is 6

----------
# System: Hepatitis C virus
# ASSAY PROTOCOL: Antiviral activity against Hepatitis C virus genotype 1b in human Huh7-luc clone ET replicon cells assessed as inhibition of replicon replication after 3 days by luciferase assay
# Format: functional, organism-based, Hepacivirus hominis
# ASSAY SETUP: Huh-7, 72 h
PARAMETER: pEC50
In simple prose, pEC50 is minus the logarithm base ten of a concentration in moles per litre.

Memo: `C[C@H](N[P@@](=O)(OC[C@H]1O[C@@H](n2ccc(=O)[nH]c2=O)[C@@]2(CCO2)[C@@H]1O)Oc1ccccc1)C(=O)OCc1ccccc1` , reported pEC50: 5.30

// pEC50 value for `CCCCOC(=O)[C@H](C)N[P@@](=O)(OC[C@H]1O[C@@H](n2ccc(=O)[nH]c2=O)[C@@]2(CCO2)[C@@H]1O)Oc1ccccc1` : 5.28

Data point: `CCCCOC(=O)[C@H](C)N[P@](=O)(OC[C@H]1O[C@@H](n2ccc(=O)[nH]c2=O)[C@@]2(CCO2)[C@@H]1O)Oc1ccccc1` ; pEC50 = 5.66

The recorded pEC50 for C[C@H](NP(=O)(OC[C@H]1O[C@@H](n2ccc(N)nc2=O)[C@@]2(CCO2)[C@@H]1O)Oc1ccc(Cl)cc1)C(=O)OCc1ccccc1 (mixture of isomers) is 5.59

The value of pEC50 measured for the compound CC[C@H](NP(=O)(OC[C@H]1O[C@@H](n2ccc(=O)[nH]c2=O)[C@@]2(CCO2)[C@@H]1O)Oc1ccccc1)C(=O)OCc1ccccc1 (mixture of isomers) turned out to be 5.24

For this compound ( C[C@H](NP(=O)(OC[C@H]1O[C@@H](n2ccc(=O)[nH]c2=O)[C@@]2(CCO2)[C@@H]1O)Oc1ccccc1)C(=O)OCc1ccccc1 (mixture of isomers) ), measured pEC50 is 5.24

The measured pEC50 associated with `C[C@H](N[P@](=O)(OC[C@H]1O[C@@H](n2ccc(=O)[nH]c2=O)[C@@]2(CCO2)[C@@H]1O)Oc1ccccc1)C(=O)OCc1ccccc1` reads 5.68

The compound listed as O=C(CNP(=O)(OC[C@H]1O[C@@H](n2ccc(=O)[nH]c2=O)[C@@]2(CCO2)[C@@H]1O)Oc1ccc(Cl)cc1)OCc1ccccc1 (mixture of isomers) shows pEC50 equal to 6.49

Quick note, pEC50 for COC(=O)C(C)(C)NP(=O)(OC[C@H]1O[C@@H](n2ccc(=O)[nH]c2=O)[C@@]2(CCO2)[C@@H]1O)Oc1ccccc1 (mixture of isomers) landed at 4.42

Please fill in: pEC50 reported for `Nc1ccn([C@@H]2O[C@H](CO)[C@@H](O)[C@]23CCO3)c(=O)n1` = 4.77
